Reference for the values: patent US20200164071A1

system under test: T1, cyno PD-1 on CHO-K1 cells (cyno)
T1 construct: whole, on cells; also called cyno hu PD-1; Cyno PD-1 transfected CHO-K1 cells
experiment summary: flow cytometry blocking assay of Example 11, PD-L1 on cyno PD-1 CHO-K1 cells; cyno taken from the legend paragraph 42 ('cyno-hu'), while Example 11 speaks of human PD-1 and human PD-L1 for this figure
readout kind: IC50 (nM)

binder="PD-06 (antibody, V domains shown, also called anti-PD-1 mab PD-06) VH: QVQLVQSGAEVKKPGASVKVSCKASGYTFTSYYIHWVRQAPGQRLEWMGWIFPGSGNSKYNENFKGRVTITRDTSASTAYMELSSLRSEDTAVYFCASETYDYGDYWGQGTLVTVSS VL: DIQMTQSPSSLSASVGDRVTITCKASQNVGTNVAWYQQKPGKAPKSLIYSASYRYSGVPSRFSGSGSGTDFTLTISSLQPEDFATYFCQQYYSYPYTFGQGTKLEIK" assay_result=2.14
binder="PD-02 mab (antibody, V domains shown) VH: QVQLVQSGAEVKKPGASVKVSCKASDYTFTNSYLYWLRQAPGQGLEWMGGINPSNGGTNFNEKFKTRTTSTRDTSISTAYMELSRLRSDDTVVYYCTRRDYNYDGGFDSWGQGTLVTVSS VL: DIQMTQSPSSLSASVGDRVTFTCRASSTLYSNYLHWYQQKPGKAPKLLIYRASFLASGVPSRFSGSGSGTDFTLTISSLQPEDFATYYCQQGSSIPLTFGGGTKVEIK" assay_result=1.72
binder="PD-05 (antibody, V domains shown, also called anti-PD-1 mab PD-05) VH: QVQLVQSGAEVKKPGASVKVSCKASGYTFTTYYIYWVRQAPGQGLEWMGGINPGNGGTNFNEKFKIRVTMTRDTSISTAYMELSSLRSEDTAVYYCARRYHGYDGGLDYWGQGTLVTVSS VL: DIVLTQSPASLAVSPGQRATITCRASKSVSTSGFSYIHWYQQKPGQPPKLLIYLASNLESGVPARFSGSGSGTDFTLTINPVEANDTANYYCQHTWELPNTFGGGTKVEIK" assay_result=1.6
binder="PD-04 (antibody, V domains shown, also called anti-PD-1 mab PD-04) VH: QVQLVQSGAEVKKPGASVKVSCKASDYTFTNSYIYWVRQAPGQGLEWMGGINPSNGGTNFNEKFKTRVTSTRDTSISTAYMELSRLRSDDTVVYYCARRDYNYDGGFDSWGQGTLVTVSS VL: DIQMTQSPSSLSASVGDRVTFTCRASSSLYSNYLHWYQQKPGKAPKLLIYRASFLASGVPSRFSGSGSGTDFTLTISSLQPEDFATYYCQQGSSIPLTFGGGTKVEIK" assay_result=2.15
